B1: SMG5 (parent)
chain: TNPDLIIVCAQSSQSLWNRLSVLL

- Variants of: B1
- experimental-protocol: protein stability index of a GFP-peptide fusion (GPS, HEK-293T) (PSI 1-6); higher = more stable;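 further: lentivirally expressed fusions sorted by FACS into six bins by GFP to DsRed ratio, PSI derived from sequencing read proportions per bin multiplied by bin number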
- test-context: c terminus: a fixed tail appended
measured-parameter: protein stability index
The response must contain the number and no unit.

Q: What measured protein stability index goes with `TNPDLIIVCAQSSQSLCNRLSVLL` ?
Result: 4.36

Q: What measured protein stability index goes with `TNFDLIIVCAQSSQSLWNRLSVLL` ?
Result: 2.18

Q: What measured protein stability index goes with `TNPDLIIVCAQSSQSLWNRLTVLL` ?
Result: 3.07

Q: What measured protein stability index goes with `TNPDLIIVCAQSSQSLWNRHSVLL` ?
Result: 1.7

Q: What measured protein stability index goes with `TNPDLIIVCAQSSYSLWNRLSVLL` ?
Result: 3.2

Q: What measured protein stability index goes with `TNPDLIIVCAQSSQSLWNRLVVLL` ?
Result: 2.88

Q: What measured protein stability index goes with `TNPDLIIVCAQSSQSVWNRLSVLL` ?
Result: 1.51

Q: What measured protein stability index goes with `TNPDLIIVCAQSEQSLWNRLSVLL` ?
Result: 1.57

Q: What measured protein stability index goes with `TNPDLIKVCAQSSQSLWNRLSVLL` ?
Result: 1.71

Q: What measured protein stability index goes with `PNPDLIIVCAQSSQSLWNRLSVLL` ?
Result: 1.98

Q: What measured protein stability index goes with `TIPDLIIVCAQSSQSLWNRLSVLL` ?
Result: 2.22

Q: What measured protein stability index goes with `TNPDLIIVCAQSSLSLWNRLSVLL` ?
Result: 1.6

Q: What measured protein stability index goes with `TNPDLIIVCAQSSQSLWNRSSVLL` ?
Result: 2.19

Q: What measured protein stability index goes with `TNPDLIEVCAQSSQSLWNRLSVLL` ?
Result: 2.25

Q: What measured protein stability index goes with `TNPDLIHVCAQSSQSLWNRLSVLL` ?
Result: 1.68

Q: What measured protein stability index goes with `TNPDLIIVCAQSSQSLWERLSVLL` ?
Result: 1.56

Q: What measured protein stability index goes with `TNPDLIIVCAQSSQSLWNSLSVLL` ?
Result: 2.06

Q: What measured protein stability index goes with `TNPDLYIVCAQSSQSLWNRLSVLL` ?
Result: 2.83

Q: What measured protein stability index goes with `TNPDLIIVCAQNSQSLWNRLSVLL` ?
Result: 1.99

Q: What measured protein stability index goes with `TNPDLICVCAQSSQSLWNRLSVLL` ?
Result: 2.48

Q: What measured protein stability index goes with `TNPDLIIVCAQSSQSLWNRWSVLL` ?
Result: 3.72

Q: What measured protein stability index goes with `YNPDLIIVCAQSSQSLWNRLSVLL` ?
Result: 1.66

Q: What measured protein stability index goes with `TNPDLIIVCAQSRQSLWNRLSVLL` ?
Result: 1.36

Q: What measured protein stability index goes with `TNPDLIIVCAQSSQSLWNRLSVDL` ?
Result: 1.73

Q: What measured protein stability index goes with `TNPDLIIVCAWSSQSLWNRLSVLL` ?
Result: 1.54

Q: What measured protein stability index goes with `TNPDLIIVCAQSSQSLWNRLSVWL` ?
Result: 2.85

Q: What measured protein stability index goes with `TNPDLIIVCAQSSQSLWNRLSVCL` ?
Result: 3.62

Q: What measured protein stability index goes with `TRPDLIIVCAQSSQSLWNRLSVLL` ?
Result: 2.88

Q: What measured protein stability index goes with `TCPDLIIVCAQSSQSLWNRLSVLL` ?
Result: 2.8

Q: What measured protein stability index goes with `TNPDLIIVCAQSSQSLWNRASVLL` ?
Result: 2.15

Q: What measured protein stability index goes with `MNPDLIIVCAQSSQSLWNRLSVLL` ?
Result: 2.97

Q: What measured protein stability index goes with `QNPDLIIVCAQSSQSLWNRLSVLL` ?
Result: 3.39

Q: What measured protein stability index goes with `TNPDLIIVCAQSSQSYWNRLSVLL` ?
Result: 2.81

Q: What measured protein stability index goes with `TNPDLIIVCAQSSQSLWNRGSVLL` ?
Result: 2.45

Q: What measured protein stability index goes with `TNPDLIIVCAQSSQKLWNRLSVLL` ?
Result: 3.11

Q: What measured protein stability index goes with `TNPDLIIVCACSSQSLWNRLSVLL` ?
Result: 3.76

Q: What measured protein stability index goes with `TNPQLIIVCAQSSQSLWNRLSVLL` ?
Result: 2.18

Q: What measured protein stability index goes with `TNPDLIIVCAQSSQSLWNRLAVLL` ?
Result: 3.16

Q: What measured protein stability index goes with `TNPDLIIECAQSSQSLWNRLSVLL` ?
Result: 1.56

Q: What measured protein stability index goes with `TNPDLIIVCAQSSQSLWNRLHVLL` ?
Result: 2.52

Q: What measured protein stability index goes with `TNPDLIIVHAQSSQSLWNRLSVLL` ?
Result: 1.64

Q: What measured protein stability index goes with `TNLDLIIVCAQSSQSLWNRLSVLL` ?
Result: 2.29

Q: What measured protein stability index goes with `WNPDLIIVCAQSSQSLWNRLSVLL` ?
Result: 2.35

Q: What measured protein stability index goes with `TNPDLIIVCAQSIQSLWNRLSVLL` ?
Result: 1.41

Q: What measured protein stability index goes with `TNPDLIIVCAQSSQSLWNRLIVLL` ?
Result: 3.08

Q: What measured protein stability index goes with `TNPDLSIVCAQSSQSLWNRLSVLL` ?
Result: 2.87

Q: What measured protein stability index goes with `TNPDLIIVCAQSSQSLWNRLSTLL` ?
Result: 2.99

Q: What measured protein stability index goes with `TNPDLIIVCAQSSQSLWNRLSVLT` ?
Result: 2.64

Q: What measured protein stability index goes with `TNPDLIIVCAQSSQQLWNRLSVLL` ?
Result: 2.12

Q: What measured protein stability index goes with `TNPDLIIVCIQSSQSLWNRLSVLL` ?
Result: 3.25

Q: What measured protein stability index goes with `TNPDLIIVCAQSSQSLWNRFSVLL` ?
Result: 1.81

Q: What measured protein stability index goes with `TNPDLIIVCTQSSQSLWNRLSVLL` ?
Result: 2.17

Q: What measured protein stability index goes with `TNPDLIIVCAQSSQSLMNRLSVLL` ?
Result: 3.06
